System: LXRa:RXRa (NR concentration 270 nM, RXRa partner concentration 90 nM)
TEST_METHOD_NOTES: PBM binding z-score (relative to random genomic background probes); higher = stronger binding; sequences stand for … in GC…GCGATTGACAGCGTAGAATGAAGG
VALUE_TYPE: PBM binding z-score

>  <SEQUENCE_STRING>
CTCGAAAGGTCGTGCTCAGGTGGGTATACCAAAC

>  <TGT>
LXRa:RXRa (NR concentration 270 nM, RXRa partner concentration 90 nM)

>  <EXPERIMENTAL_VALUE>
3.41

$$$$
>  <SEQUENCE_STRING>
GGTTGTAGATCAAGGTTAAGAAAGACTAAGCTAA

>  <TGT>
LXRa:RXRa (NR concentration 270 nM, RXRa partner concentration 90 nM)

>  <EXPERIMENTAL_VALUE>
1.3

$$$$
>  <SEQUENCE_STRING>
TCTATTTGGTCAAAGGTCACACACTCGAAATGCG

>  <TGT>
LXRa:RXRa (NR concentration 270 nM, RXRa partner concentration 90 nM)

>  <EXPERIMENTAL_VALUE>
5.68

$$$$
>  <SEQUENCE_STRING>
CCTGTTAGGTCAATGGTCAGCTAAAGCAGCTCGC

>  <TGT>
LXRa:RXRa (NR concentration 270 nM, RXRa partner concentration 90 nM)

>  <EXPERIMENTAL_VALUE>
2.92

$$$$
>  <SEQUENCE_STRING>
CCTACTGGGCCAAGGTCAATGATCAGTCAAAGCA

>  <TGT>
LXRa:RXRa (NR concentration 270 nM, RXRa partner concentration 90 nM)

>  <EXPERIMENTAL_VALUE>
2.33

$$$$
>  <SEQUENCE_STRING>
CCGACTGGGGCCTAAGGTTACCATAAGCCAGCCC

>  <TGT>
LXRa:RXRa (NR concentration 270 nM, RXRa partner concentration 90 nM)

>  <EXPERIMENTAL_VALUE>
1.58

$$$$
>  <SEQUENCE_STRING>
ACAGACAGGTAAGTGAAGGTAACTCAGCTGGACG

>  <TGT>
LXRa:RXRa (NR concentration 270 nM, RXRa partner concentration 90 nM)

>  <EXPERIMENTAL_VALUE>
0.0707

$$$$
>  <SEQUENCE_STRING>
AGTCAAAGTTCAGGACGAGGTAACGTAGAGCACG

>  <TGT>
LXRa:RXRa (NR concentration 270 nM, RXRa partner concentration 90 nM)

>  <EXPERIMENTAL_VALUE>
3.8

$$$$
>  <SEQUENCE_STRING>
TCGTGTAGGTTACCAATGGGGCATTCAGCTTTCT

>  <TGT>
LXRa:RXRa (NR concentration 270 nM, RXRa partner concentration 90 nM)

>  <EXPERIMENTAL_VALUE>
1.81

$$$$
>  <SEQUENCE_STRING>
GCATATCGGTAATACAAGGTGAAAGTCCGATTGT

>  <TGT>
LXRa:RXRa (NR concentration 270 nM, RXRa partner concentration 90 nM)

>  <EXPERIMENTAL_VALUE>
0.4

$$$$
>  <SEQUENCE_STRING>
ATCGAAAGGTCGAGGTGCGTATAGAGAAAGGGAA

>  <TGT>
LXRa:RXRa (NR concentration 270 nM, RXRa partner concentration 90 nM)

>  <EXPERIMENTAL_VALUE>
3.27

$$$$
>  <SEQUENCE_STRING>
TAGCCTAGCTCATGGGCCAGTATACCACGCGAAC

>  <TGT>
LXRa:RXRa (NR concentration 270 nM, RXRa partner concentration 90 nM)

>  <EXPERIMENTAL_VALUE>
-0.837

$$$$
